assay: CCTE_Padilla_ZF_144hpf_TERATOSCORE: (Legacy) CCTE's 144 Hour Post-fertilization zebrafish Assay Teratoscore, Padilla Lab (AID 2283679)
Activity calls are given as the source filed them. How the source made its calls: active means hit-call score of the fitted dose curve at least 0.9, where 1 is the maximum; inactive means score below 0.9.
Select the correct class. Options are T (active), F (inactive) and nothing else.

Field: example entries. Status: answers known.
Any idea what this test logged for `c1ccc2cc3c(ccc4ccccc43)cc2c1` ?
T

Hi, do you know how `Nc1cccc2c(N)cccc12` came out in this test?
T

For `OC1CCCCC1` , what call appears in the results of this test?
F

---
Can you look up the reported call for `ClC1=C(Cl)C(Cl)(Cl)C(Cl)=C1Cl` for me?
T

Recorded test call requested for `Cc1oc(-c2ccccc2)nc1CCOc1ccc(C[C@H](Nc2ccccc2C(=O)c2ccccc2)C(=O)O)cc1`
T

What did this assay record as the result for `CC1=C(/C=C/C(C)=C/C=C/C(C)=C/C(=O)O)C(C)(C)CCC1` ?
T

Please let me know the test result on file for `CCCCCCCCOC(=O)CCCCCCCCC(=O)OCCCCCCCC` .
F

Lab log entry: `CCC(=C(c1ccc(O)cc1)c1ccc(OCCN(C)C)cc1)c1ccccc1` — outcome as called in the assay?
T

Record lookup: outcome of this test for `CC(C)(C)c1cccc(C(C)(C)C)c1O` ?
T

----------
read-out: Insulin Like Growth Factor 1 (IGF1), IGF1 (gene 3479); experiment: LTEA_HepaRG_IGF1: Life Technologies and Expression Analysis (LTEA) Assay for Insulin Like Growth Factor 1 (IGF1) using HepaRG (AID 2283506); conditions: mRNA level, 48 h; actives raise or lower the signal
Calls of active or inactive are those of the source. How the source made its calls: active means hit-call score of the fitted dose curve at least 0.9, where 1 is the maximum; inactive means score below 0.9.
Your answer must be one of the following: class 1 = active, class 0 = inactive

Some solved entries appear below for comparison.
Each compound tested received a call. Report the one for `CC1=C(/C=C/C(C)=C/C=C/C(C)=C/C(=O)O)C(C)(C)CCC1` .
class 1

Dear colleague, could you share the recorded outcome for `NC(=O)N(O)[C@@H]1C=C[C@H](Oc2cccc(Oc3ccc(F)cc3)c2)C1` when you have a moment?
class 1

Give the logged outcome of this assay for the following compound: `OCCC(F)(F)C(F)(F)C(F)(F)C(F)(F)C(F)(F)C(F)(F)F`
class 0

Hi team, can someone confirm the assay call for CCCCC(CC)COC(=O)CCCCC(=O)OCC(CC)CCCC (stereo not given) ?
class 0

Further cases:
Dear all, I need the recorded test outcome for `Cc1oc(-c2ccccc2)nc1CCOc1ccc(C[C@H](Nc2ccccc2C(=O)c2ccccc2)C(=O)O)cc1` , thank you.
class 1

----------
experiment: Tanguay_ZF_120hpf_CFIN_legacy: (Legacy) Oregon State University Tanguay Lab 120 Hour Post-fertilization zebrafish Assay for Caudal Fin Malformation (AID 2283649)
Results filed as inconclusive are left out. Active and inactive are the calls of the source. Rule for the calls: active = hit-call score of the fitted dose curve at least 0.9, where 1 is the maximum; inconclusive = response in the unintended direction; inactive = score below 0.9.
Response enum: active, inactive

Any idea what this test logged for OC1CCC(C2CCCCC2)CC1 (stereo unspecified) ?
inactive

What outcome does the record of this test show for `C[C@@H]1C[C@H]2[C@@H]3CCC4=CC(=O)C=C[C@]4(C)[C@@]3(F)[C@@H](O)C[C@]2(C)[C@@]1(O)C(=O)COP(=O)(O)O` ?
inactive

For this molecule, state the assay outcome: `CCCCCCCCCCCCN1CCCC1=O`
active

I'd appreciate the recorded outcome for `CC(C)CCCCCCOC(=O)CCCCC(=O)OCCCCCCC(C)C` from this test.
inactive

For the next question, use this molecule.
Status in this test for `CC[C@H](c1ccc(O)cc1)[C@@H](CC)c1ccc(O)cc1` ?
inactive

----------
target: chicken Estrogen Receptor (ERa), ESR1 (gene 396099) (UniProt P06212); test: ATG_chERa_XSP2: Attagene TRANS-FACTORIAL Multi-Species (XSP2) HepG2 Assay for chicken Estrogen Receptor (ERa) (AID 2283817);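 further: actives raise reporter signal above DMSO so AC50 reflects ER activation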
Sequence (P06212 whole entry, looked up): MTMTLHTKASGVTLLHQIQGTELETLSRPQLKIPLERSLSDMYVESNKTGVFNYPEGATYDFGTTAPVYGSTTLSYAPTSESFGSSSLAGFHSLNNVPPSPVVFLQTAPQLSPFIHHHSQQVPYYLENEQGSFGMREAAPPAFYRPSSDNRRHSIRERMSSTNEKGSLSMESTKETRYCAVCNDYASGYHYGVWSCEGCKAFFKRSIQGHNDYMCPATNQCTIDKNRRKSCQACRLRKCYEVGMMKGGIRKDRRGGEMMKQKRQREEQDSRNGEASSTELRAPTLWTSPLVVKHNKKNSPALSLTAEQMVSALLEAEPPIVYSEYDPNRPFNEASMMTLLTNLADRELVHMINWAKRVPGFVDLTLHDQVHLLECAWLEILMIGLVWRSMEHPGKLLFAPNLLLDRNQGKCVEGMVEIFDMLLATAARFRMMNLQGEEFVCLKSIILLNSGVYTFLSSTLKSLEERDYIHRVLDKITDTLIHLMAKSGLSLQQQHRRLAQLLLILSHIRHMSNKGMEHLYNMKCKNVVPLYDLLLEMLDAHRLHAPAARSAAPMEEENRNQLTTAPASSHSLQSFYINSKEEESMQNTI
Results filed as inconclusive are left out. Activity calls are given as the source filed them. The calls were made as follows: active = hit-call score of the fitted dose curve at least 0.9, where 1 is the maximum; inconclusive = response in the unintended direction; inactive = score below 0.9.
Outcomes you can answer with include only these: T (active), F (inactive)

For orientation, consider the following solved cases.
Could you please tell me the result logged for CCC(C)(C)C1CCC(O)CC1 (centres undefined) in this assay?
F

In this assay, the call recorded for `c1ccc2c(c1)ccc1ccccc12` was what?
F

Call for entry `C#C[C@]1(O)CC[C@H]2[C@@H]3CCC4=CC(=O)CC[C@@H]4[C@H]3CC[C@@]21C` :
T

Now examine the next entry.
Please indicate how the test categorized `CC[C@H](c1ccc(O)cc1)[C@@H](CC)c1ccc(O)cc1` .
T

----------
biological target: human Dopamine Transporter (DAT), SLC6A3 (gene 6531) (UniProt Q01959); experiment: NVS_TR_hDAT: NovaScreen (NVS) Transporter Assay for human Dopamine Transporter (DAT) (AID 2283374);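 further: activity means loss of bound radioligand signal relative to DMSO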
Sequence (Q01959 whole entry, looked up): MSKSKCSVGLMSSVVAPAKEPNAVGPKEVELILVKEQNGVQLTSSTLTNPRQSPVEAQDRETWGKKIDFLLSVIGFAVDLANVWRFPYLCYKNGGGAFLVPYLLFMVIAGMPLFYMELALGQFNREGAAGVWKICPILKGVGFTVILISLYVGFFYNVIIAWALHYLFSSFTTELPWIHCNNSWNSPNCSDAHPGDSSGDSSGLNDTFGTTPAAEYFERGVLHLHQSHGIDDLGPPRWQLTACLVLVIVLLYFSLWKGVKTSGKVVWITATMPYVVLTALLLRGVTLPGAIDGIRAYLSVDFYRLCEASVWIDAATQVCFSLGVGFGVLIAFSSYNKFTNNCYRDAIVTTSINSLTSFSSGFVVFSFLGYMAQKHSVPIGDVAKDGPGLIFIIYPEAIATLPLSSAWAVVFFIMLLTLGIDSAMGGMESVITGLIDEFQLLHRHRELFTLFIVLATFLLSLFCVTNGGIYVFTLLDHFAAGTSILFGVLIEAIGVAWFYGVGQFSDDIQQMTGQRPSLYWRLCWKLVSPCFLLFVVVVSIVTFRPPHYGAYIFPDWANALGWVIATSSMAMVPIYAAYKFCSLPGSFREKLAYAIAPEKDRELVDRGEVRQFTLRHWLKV
Inconclusive results are not listed. The source made the active and inactive calls. Rule for the calls: active = hit-call score of the fitted dose curve at least 0.9, where 1 is the maximum; inconclusive = response in the unintended direction; inactive = score below 0.9.
Mark one answer only. Choices: true = active, false = inactive

Reference set, count: 6
In this assay, the call recorded for `Cc1oc(-c2ccccc2)nc1CCOc1ccc(C[C@H](Nc2ccccc2C(=O)c2ccccc2)C(=O)O)cc1` was what?
true

Dear all, I need the recorded test outcome for `CCCCCCCCCCCCc1ccccc1S(=O)(=O)O` , thank you.
true

Which outcome was assigned to `NC(=O)N(O)[C@@H]1C=C[C@H](Oc2cccc(Oc3ccc(F)cc3)c2)C1` in this test?
true

Record lookup: outcome of this test for `CCC(=C(c1ccc(O)cc1)c1ccc(OCCN(C)C)cc1)c1ccccc1` ?
true

Per the assay record, what outcome was assigned to `CCCOc1sc(C(=O)N2CCC(c3cc(CN)ccc3F)CC2)c(C)c1Br` ?
true

Name the outcome recorded for `CCCOC(=O)c1ccc(O)cc1` in the assay.
true

---
Outcome? `CCCCCCCC(=O)O`
false

Assay outcome for `CC1=C(/C=C/C(C)=C/C=C/C(C)=C/C(=O)O)C(C)(C)CCC1` : what was it?
true

Per the assay record, what outcome was assigned to `CC(=O)NC1(c2cccc(F)c2)CCN(CC[C@@]2(c3ccc(Cl)c(Cl)c3)CN(c3ccccc3)C(=O)CO2)CC1` ?
true

Recorded call for `CC[C@H](c1ccc(O)cc1)[C@@H](CC)c1ccc(O)cc1` ?
true

Kindly provide the recorded test outcome for the following compound: `CC(C)(C)c1ccc(O)c(C(C)(C)C)c1`
true

----------
experiment: CCTE_Harrill_HTTr_Viability_MCF7: CCTE's 6-hour Cell Viability Assessment for the High-Throughput Transcriptomics (HTTr) Platform, in MCF-7 cells cultured in DMEM + 10% fetal bovine serum, Harrill Lab (AID 2284010)
Activity calls are given as the source filed them. The calls were made as follows: active = hit-call score of the fitted dose curve at least 0.9, where 1 is the maximum; inactive = score below 0.9.
Hi there, use one of these labels in your reply, thanks! active, inactive

Could you kindly confirm the outcome this assay logged for `CC(C)(C)CC(C)(C)c1ccc(O)c(-n2nc3ccccc3n2)c1` ?
inactive

Continuing:
Could you please tell me the result logged for `Nc1cccc2c(N)cccc12` in this assay?
inactive

For this molecule, state the assay outcome: `O=C(/C=C/c1ccc(O)cc1)CC(=O)/C=C/c1ccc(O)cc1`
inactive

----------
target: AR (gene 367); test: ACEA_AR_antagonist_80hr: ACEA Biosciences xCELLigence Real-Time Cell Analysis on Androgen Receptor Antagonism for Proliferation (AID 2283787);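 further: 22Rv1 human prostate cancer cells with growth followed by electrical impedance; hits lower the impedance growth signal relative to DMSO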
Results filed as inconclusive are left out. The source made the active and inactive calls. The calls were made as follows: active = hit-call score of the fitted dose curve at least 0.9, where 1 is the maximum; inconclusive = response in the unintended direction; inactive = score below 0.9.
API: response.call in active, inactive

Here are 3 compounds together with their reported answers.
Lab log entry: `Oc1cc2ccccc2c2ccccc12` — outcome as called in the assay?
active

Call for entry N#C[C@@H]1CC(F)(F)CN1C(=O)CNC1CC2CCC(C1)N2c1ncccn1 (some centres not stated) :
inactive

In this assay, the call recorded for `Cc1oc(-c2ccccc2)nc1CCOc1ccc(C[C@H](Nc2ccccc2C(=O)c2ccccc2)C(=O)O)cc1` was what?
active

Further cases:
Per the assay record, what outcome was assigned to `CCCCCCCCCCCCc1ccccc1S(=O)(=O)O` ?
active

What classification did `CCC(=C(c1ccc(O)cc1)c1ccc(OCCN(C)C)cc1)c1ccccc1` end up with in this test?
active

I'd appreciate the recorded outcome for NC(=O)N1C(=O)C(C(=O)c2cc(Cl)cs2)c2cc(F)c(Cl)cc21 (configuration not stated) from this test.
inactive

// outcome(item) with item = `Cc1cc(CCN2CCN(c3nsc4ccccc34)CC2)cc2c1NC(=O)CC2(C)C`
active

Field: outcome | Entry: `CC[C@H](c1ccc(O)cc1)[C@@H](CC)c1ccc(O)cc1`
active

Recorded call for `COc1cc(CCC(=O)CC(=O)CCc2ccc(O)c(OC)c2)ccc1O` ?
active

I'd appreciate the recorded outcome for `c1ccc2c(c1)ccc1ccccc12` from this test.
active

Outcome logged for `OCCC(F)(F)C(F)(F)C(F)(F)C(F)(F)C(F)(F)C(F)(F)C(F)(F)C(F)(F)F` in this assay:
inactive

For `O=C(/C=C/c1ccc(O)cc1)CC(=O)/C=C/c1ccc(O)cc1` , what call appears in the results of this test?
active

----------
assay: ATG_Oct_MLP_CIS: Attagene CIS-FACTORIAL HepG2 Assay for human Octamer-Binding Transcription Factor (Oct) (AID 2282993); conditions: HepG2 Attagene cis-factorial Oct reporter, mRNA; actives raise or lower the signal
Activity calls are given as the source filed them. The calls were made as follows: active = hit-call score of the fitted dose curve at least 0.9, where 1 is the maximum; inactive = score below 0.9.
The categories you may choose from are active, inactive

Worked cases, answers included:
Could you check what this test reported for `CCCOc1sc(C(=O)N2CCC(c3cc(CN)ccc3F)CC2)c(C)c1Br` ?
inactive

Status in this test for `COC(=O)CCCCC(=O)OC` ?
inactive

Answer briefly: the call reported for CC(O)C(=O)O (centres undefined) in this assay.
inactive

Tell me the assay call for `CN1CCN(c2ccccc2/C=C2\SCCN(c3ccc(Cl)c(Cl)c3)C2=O)CC1` please.
inactive

Dear all, I need the recorded test outcome for `CCCCCCCCOC(=O)CCCCCCCCC(=O)OCCCCCCCC` , thank you.
inactive

New cases:
Per the records of this test, what outcome belongs to `CCN(CC)CCNc1ccc(CNC=O)c2sc3ccc(OC)cc3c(=O)c12` ?
active

What was the test verdict on `Oc1cc2ccccc2c2ccccc12` ?
inactive

What classification did `c1ccc2c(c1)ccc1ccccc12` end up with in this test?
inactive

Called result for `O=C(OCCOCCOC(=O)c1ccccc1)c1ccccc1`
inactive

# lookup: test call for `CC(C)(C)CC(C)(C)c1ccc(O)c(-n2nc3ccccc3n2)c1`
active

How did this test come out for `CC[C@H](c1ccc(O)cc1)[C@@H](CC)c1ccc(O)cc1` ?
inactive

Hi, do you know how `Cc1oc(-c2ccccc2)nc1CCOc1ccc(C[C@H](Nc2ccccc2C(=O)c2ccccc2)C(=O)O)cc1` came out in this test?
active

Please let me know the test result on file for CCc1ccc(CCOc2ccc(CC3SC(=O)NC3=O)cc2)nc1 (centres undefined) .
inactive

Lab log entry: `COc1cc(CCC(=O)CC(=O)CCc2ccc(O)c(OC)c2)ccc1O` — outcome as called in the assay?
active

What call does the record list for `CN1CCC[C@H]1c1cccnc1` ?
inactive
